I'd be grateful if you could share measured Ki for these entries.
tested.target: rRNA adenine N-6-methyltransferase (Streptococcus pneumoniae, UniProt P21236)
Sequence (P21236 whole entry): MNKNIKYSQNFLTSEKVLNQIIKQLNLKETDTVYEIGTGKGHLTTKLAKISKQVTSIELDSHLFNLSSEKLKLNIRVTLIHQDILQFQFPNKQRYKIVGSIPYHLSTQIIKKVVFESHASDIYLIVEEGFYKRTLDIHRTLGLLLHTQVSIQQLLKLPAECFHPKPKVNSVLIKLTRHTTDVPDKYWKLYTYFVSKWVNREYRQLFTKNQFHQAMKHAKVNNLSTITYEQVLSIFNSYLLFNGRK
Answers are plain numbers, in µM.

Use the examples below as a reference point.
INSERT INTO assay_data (molecule, reported_value) VALUES
  ('Nc1nc(NC2Cc3ccc(F)cc3C2)nc(N2CCCCC2)n1 (stereo unspecified)', 3),
  ('COc1ccc2c(c1)CC(Nc1nc(N)nc(N3CCCCC3)n1)C2 (stereo unspecified)', 6),
  ('Nc1nc(NC2Cc3ccccc3C2)nc(N2CCC(CO)CC2)n1', 9);

Report Ki for every entry below.
1. Nc1ccc(-c2cc(NC3Cc4ccccc4C3)nc(N)n2)cc1
2. Nc1cccc(-c2nc(N)nc(NC3Cc4ccccc4C3)n2)c1

A)
1. 75
2. 4
